Assay Text: Plasma exposure (dried blood spot) after single oral dose
Format: in vivo
Experimental Context: male, Sprague Dawley, rat, whole blood (dried blood spot), po, 3 mg/kg, oral 3 mg/kg, 4 h, dried blood spot, read-out: Concentration, individual animals
Readout Name: concentration at 4 h (nM)

[[record]]
compound = "O=c1c2nnc(C3(C4CC4)CC3)n2c2c(n1CC1CC1)CCCC2 [BTTQ]"
measured_result = 2920


* * *

Assay Text: Plasma exposure (dried blood spot) after single oral dose
Assay type: in vivo
Experimental Context: male, Sprague Dawley, rat, whole blood (dried blood spot), po, 0.3 mg/kg, oral 0.3 mg/kg, 1 h, dried blood spot, read-out: Concentration, individual animals
Readout Name: concentration at 1 h (nM)

[[record]]
compound = "O=c1c2nnc(C3(C4CC4)CC3)n2c2c(n1CC1CC1)CCCC2 [BTTQ]"
measured_result = 456


Origin of values: paper PMC7506137
